Cited source for all entries: paper PMC5435539

Kindly supply the reported IC50 values for the records listed here.
system: MCF-7 breast cancer cells; test: Alamar Blue cell viability assay, 72 h; type: cell-based; settings: Homo sapiens, MCF7, 72 h, read-out: IC50 MCF-7 cell viability, 72 h

Request: IC50, test system MCF-7 breast cancer cells, entry COc1cccc2c1C(=O)c1c(O)c3c(c(O)c1C2=O)C[C@@](O)(C(=O)CO)C[C@@H]3O[C@H]1C[C@H](N)[C@H](O)[C@H](C)O1 [Doxorubicin, reference compound]
0.1 µM

CC/C(=C(\c1ccc(O)cc1)c1ccc(OCCN(C)C)cc1)c1ccccc1 [4OH-Tam, 4-hydroxy-tamoxifen] ?
2.6 µM

O=c1[nH]cc(F)c(=O)[nH]1 [5-Fluorouracil, reference compound] ?
> 10 µM
